- Measured On: T1, recombinant human TL1A (human, UniProt O95150 71-251)
- T1 construct: The ELISA method says only 'recombinant TL1A' coated on plates; homotrimeric cytokine; also called TNFSF15; recombinant TL1A
- T1 chain: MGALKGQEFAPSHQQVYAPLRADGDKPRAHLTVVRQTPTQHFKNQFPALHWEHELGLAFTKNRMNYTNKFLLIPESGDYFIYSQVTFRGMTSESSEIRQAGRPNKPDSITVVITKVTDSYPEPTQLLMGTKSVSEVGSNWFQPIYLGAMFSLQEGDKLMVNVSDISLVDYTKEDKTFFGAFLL
- Assay Summary: competition ELISA on coated recombinant TL1A; competitor biotinylated TL1A-0002
Measure: Bioactivity relative to TL1A-0002 (fold)
Enter your answer as a number in fold; do not include the unit.

These solved cases illustrate the format of a correct answer.
# Binder, Measure, Observed Value
data = [
    ("TL1A-0281 (antibody, human IgG1, kappa, V domains shown, human IgG1 effector-function-minimized / human kappa) VH: QVQLVQSGAEVKKPGASVKVSCKASGYDFSYYGISWVRQAPGQGLEWMGWISTYNTNTHYAPSLQGRVTMTTDTSTSTAYMELRSLRSDDTAVYYCARESYYGSGAHRGGMDVWGQGTTVTVSS VL: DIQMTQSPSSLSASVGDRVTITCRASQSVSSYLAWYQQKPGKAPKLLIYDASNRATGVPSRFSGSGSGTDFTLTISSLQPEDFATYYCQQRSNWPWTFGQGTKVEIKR", "Bioactivity relative to TL1A-0002", 2.6),
    ("TL1A-0189 (antibody, human IgG1, kappa, V domains shown, IgG1 effector-minimized/kappa) VH: QVQLVQSGAEVKKPGASVKVSCKASGYDFTYYGISWVRQAPGQGLEWMGWISTYNGNTHYARMLQGRVTMTTDTSTSTAYMELRSLRSDDTAVYYCARENYYGSGAYRGGMDVWGQGTTVTVSS VL: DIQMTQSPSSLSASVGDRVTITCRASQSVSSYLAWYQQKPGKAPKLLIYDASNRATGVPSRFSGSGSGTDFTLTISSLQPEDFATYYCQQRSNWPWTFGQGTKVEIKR", "Bioactivity relative to TL1A-0002", 0.8),
    ("TL1A-0282 (antibody, V domains shown, IgG1 effector-minimized/kappa) VH: QVQLVQSGAEVKKPGASVKVSCKASGYDFSYYGISWVRQAPGQGLEWMGWISTYGGNTHYAPSLQGRVTMTTDTSTSTAYMELRSLRSDDTAVYYCARESYYGSGAFRGGMDVWGQGTTVTVSS VL: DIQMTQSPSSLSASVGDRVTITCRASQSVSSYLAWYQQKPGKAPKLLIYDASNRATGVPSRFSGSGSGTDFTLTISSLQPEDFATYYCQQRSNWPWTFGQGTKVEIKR", "Bioactivity relative to TL1A-0002", 10.3),
    ("TL1A-0296 (antibody, V domains shown, IgG1 effector-minimized/kappa) VH: QVQLVQSGAEVKKPGASVKVSCKASGYDFTYYGVSWVRQAPGQGLEWMGWISTYGGNTHYAPSLQGRVTMTTDTSTSTAYMELRSLRSDDTAVYYCARESYYGSGAFRGGMDVWGQGTTVTVSS VL: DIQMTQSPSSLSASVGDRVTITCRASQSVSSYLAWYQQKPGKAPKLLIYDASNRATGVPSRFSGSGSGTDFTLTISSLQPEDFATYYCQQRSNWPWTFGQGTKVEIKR", "Bioactivity relative to TL1A-0002", 17.3),
]

# input for lookup
Give its Bioactivity relative to TL1A-0002 value. Item: TL1A-0286 (antibody, human IgG1, kappa, V domains shown, human IgG1 effector-function-minimized / human kappa) VH: QVQLVQSGAEVKKPGASVKVSCKASGYDFTYYGVSWVRQAPGQGLEWMGWISTYNDNTHYAQKLQGRVTMTTDTSTSTAYMELRSLRSDDTAVYYCARESYYGSGAFRGGMDVWGQGTTVTVSS VL: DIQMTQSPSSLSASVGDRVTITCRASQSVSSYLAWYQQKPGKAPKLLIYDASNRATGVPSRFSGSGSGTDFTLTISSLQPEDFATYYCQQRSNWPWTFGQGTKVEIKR
2.3

# credit: patent US20240059799A1
